# System: T1, FcγRIIB (form not stated) (UniProt P31994 43-217, limits assumed)
# T1 construct: also called FcγRIIB (ELISA)
# T1 sequence (looked up): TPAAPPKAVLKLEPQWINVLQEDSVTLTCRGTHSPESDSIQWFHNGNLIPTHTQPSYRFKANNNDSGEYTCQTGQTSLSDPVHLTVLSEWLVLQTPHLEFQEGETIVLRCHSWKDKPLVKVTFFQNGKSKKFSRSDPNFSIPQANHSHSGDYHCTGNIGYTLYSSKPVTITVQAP
# Assay text: ELISA
Attribute measured: binding result

Note binding result for the binder shown: ch4-4-20 P247L, A431V, S442F (antibody) heavy: ASTKGPSVFPLAPSSKSTSGGTAALGCLVKDYFPEPVTVSWNSGALTSGVHTFPAVLQSSGLYSLSSVVTVPSSSLGTQTYICNVNHKPSNTKVDKKVEPKSCDKTHTCPPCPAPELLGGPSVFLFPPKLKDTLMISRTPEVTCVVVDVSHEDPEVKFNWYVDGVEVHNAKTKPREEQYNSTYRVVSVLTVLHQDWLNGKEYKCKVSNKALPAPIEKTISKAKGQPREPQVYTLPPSRDELTKNQVSLTCLVKGFYPSDIAVEWESNGQPENNYKTTPPVLDSDGSFFLYSKLTVDKSRWQQGNVFSCSVMHEVLHNHYTQKSLFLSPGK binds

Note binding result for the binder shown: ch4-4-20 K334E, T359N, T366S, Q386R (antibody) heavy: ASTKGPSVFPLAPSSKSTSGGTAALGCLVKDYFPEPVTVSWNSGALTSGVHTFPAVLQSSGLYSLSSVVTVPSSSLGTQTYICNVNHKPSNTKVDKKVEPKSCDKTHTCPPCPAPELLGGPSVFLFPPKPKDTLMISRTPEVTCVVVDVSHEDPEVKFNWYVDGVEVHNAKTKPREEQYNSTYRVVSVLTVLHQDWLNGKEYKCKVSNKALPAPIEETISKAKGQPREPQVYTLPPSRDELNKNQVSLSCLVKGFYPSDIAVEWESNGRPENNYKTTPPVLDSDGSFFLYSKLTVDKSRWQQGNVFSCSVMHEALHNHYTQKSLSLSPGK binds
